# Test system: S.sanguis 10557
# ASSAY: Inhibition of bacterial growth (24 h, optical density)
# Type: cell-based, Streptococcus sanguis
# RUN_CONDITIONS: 50% inhibition in growth, 24 hours, means of triplicate experiments, read-out: ID/50 (the source's name)
What IC50 was measured for each of the following?
One number for each entry, in µM.

CHEM_SMILES: [F-].[Na+]
ASSAY_VALUE: 1820

Which IC50 is reported for this compound? O=S(=O)([O-])[O-].[Zn+2]
400
